Each entry below carries its recorded PBM binding z-score.
# Tested on: LXRa:RXRa (NR concentration 270 nM, RXRa partner concentration 90 nM)
# Protocol description: PBM binding z-score (relative to random genomic background probes); higher = stronger binding; sequences stand for … in GC…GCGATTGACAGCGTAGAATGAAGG
Lab note: record just the number, no unit beside it.

Sample answers from the record:
>>> quantitative_readout("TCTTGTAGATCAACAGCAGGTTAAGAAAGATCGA")
0.476
>>> quantitative_readout("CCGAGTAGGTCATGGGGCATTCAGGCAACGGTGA")
3.04
>>> quantitative_readout("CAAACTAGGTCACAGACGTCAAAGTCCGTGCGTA")
3.06
>>> quantitative_readout("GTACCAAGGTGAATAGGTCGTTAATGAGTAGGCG")
0.484
>>> quantitative_readout("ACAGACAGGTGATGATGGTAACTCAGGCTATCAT")
-0.0671
>>> quantitative_readout("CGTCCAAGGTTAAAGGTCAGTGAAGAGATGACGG")
5.21

Asked: Name the recorded PBM binding z-score of the item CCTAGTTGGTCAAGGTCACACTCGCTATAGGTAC in your answer.
Given back: 3.53

Asked: Determine from records and report PBM binding z-score for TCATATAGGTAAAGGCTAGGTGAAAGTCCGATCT
Given back: 0.707

Asked: Please report the measured PBM binding z-score for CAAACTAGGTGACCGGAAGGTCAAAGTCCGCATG
Given back: 4.09

Asked: Provide PBM binding z-score value for the following sequence: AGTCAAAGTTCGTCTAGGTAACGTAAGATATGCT
Given back: 1.16
